Data provenance: patent US20140341917A1

tested_on: T1, human PD-L1 (human, UniProt Q9NZQ7 19-238, limits assumed)
T1 construct: Protein used in the Biacore assays of 3.1
method_summary: Biacore kinetic profile

>  <binder>
A09-222-1 (antibody, human IgG1, lambda, V domains shown, also called VH-M31S, M33L, S63T, I93V) VH: EVQLLESGGGLVQPGGSLRLSCAASGFTFSSYLMMWVRQAPGKGLEWVSSIYPSGGITFYADTVKGRFTISRDNSKNTLYLQMNSLRAEDTAVYYCARIKLGTVTTVDYWGQGTLVTVSS VL: QSALTQPASVSGSPGQSITISCTGTSSDVGAYNYVSWYQQHPGKAPKLMIYDVSNRPSGVSNRFSGSKSGNTASLTISGLQAEDEADYYCSSYTSSSTRVFGTGTKVTVLG

>  <unit_abbreviation>
nM

>  <Kd>
1.24

$$$$
>  <binder>
A09-204-1 (antibody, human IgG1, lambda, V domains shown, positions counted from the N-terminus of the chain; also called VH-M31I, M33I, M35F, S63T, I93V) VH: EVQLLESGGGLVQPGGSLRLSCAASGFTFSIYIMFWVRQAPGKGLEWVSSIYPSGGITFYADTVKGRFTISRDNSKNTLYLQMNSLRAEDTAVYYCARIKLGTVTTVDYWGQGTLVTVSS VL: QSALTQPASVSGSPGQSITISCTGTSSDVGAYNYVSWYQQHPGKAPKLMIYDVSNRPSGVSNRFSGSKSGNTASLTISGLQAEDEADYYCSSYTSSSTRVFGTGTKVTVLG

>  <unit_abbreviation>
nM

>  <Kd>
0.1

$$$$
>  <binder>
A09-240-2 (antibody, human IgG1, lambda, V domains shown, also called VL-A31G; VH-M33I, M35F, S63T, I93V) VH: EVQLLESGGGLVQPGGSLRLSCAASGFTFSMYIMFWVRQAPGKGLEWVSSIYPSGGITFYADTVKGRFTISRDNSKNTLYLQMNSLRAEDTAVYYCARIKLGTVTTVDYWGQGTLVTVSS VL: QSALTQPASVSGSPGQSITISCTGTSSDVGGYNYVSWYQQHPGKAPKLMIYDVSNRPSGVSNRFSGSKSGNTASLTISGLQAEDEADYYCSSYTSSSTRVFGTGTKVTVLG

>  <unit_abbreviation>
nM

>  <Kd>
0.16

$$$$
